Collected kon values appear next to each entry.
Biological target: T1, human IL-23 (human, UniProt Q9NPF7 20-189; P29460 23-328)
T1 construct: also called hIL-23; human recombinant IL-23
T1 sequence (looked up) 1: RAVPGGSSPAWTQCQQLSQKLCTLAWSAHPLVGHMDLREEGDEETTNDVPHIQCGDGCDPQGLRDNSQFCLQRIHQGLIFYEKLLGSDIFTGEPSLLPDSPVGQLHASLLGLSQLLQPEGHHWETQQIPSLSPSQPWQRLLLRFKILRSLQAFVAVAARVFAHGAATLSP
T1 sequence (looked up) 2: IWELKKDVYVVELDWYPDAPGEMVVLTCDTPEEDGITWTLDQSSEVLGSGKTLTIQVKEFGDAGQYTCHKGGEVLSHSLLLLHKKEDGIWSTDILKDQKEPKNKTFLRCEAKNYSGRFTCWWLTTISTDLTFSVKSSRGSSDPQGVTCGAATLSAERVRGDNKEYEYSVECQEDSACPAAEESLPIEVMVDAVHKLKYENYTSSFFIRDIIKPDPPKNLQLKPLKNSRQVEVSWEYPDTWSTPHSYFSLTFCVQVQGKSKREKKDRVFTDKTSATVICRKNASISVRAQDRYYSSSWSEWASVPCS
Test: SPR, Adnectin captured by anti-His mAb, IL-23 injected

{"columns": ["binder", "kon [M⁻¹ s⁻¹]"],
 "data": [
  ["1437A09 (designed binder, captured by anti-His mAb) MGVSDVPRDLEVVAATPTSLLISWGHYPMHVRYYRITYGETGGNSPVQEFTVPSKQHTATISGLKPGVDYTITVYAVTYYNEADYSQIPISINYRTEIDKPSQHHHHHH", 80600],
  ["1486D04 (designed binder, captured by anti-His mAb) MGVSDVPRDLEVVAATPTSLLISWGHYPLHIRYYRITYGETGGNSPVQEFTVPRSTHTATISGLKPGVDYTITVYAVTYYNEADYSQIPISINYRTEIDKPSQHHHHHH", 151000],
  ["1487G03 (designed binder, captured by anti-His mAb) MGVSDVPRDLEVVAATPTSLLISWGHYPLHVRYYRITYGETGGNSPVQEFTVPAHRYTATISGLKPGVDYTITVYAVTYYNEADYSQIPISINYRTEIDKPSQHHHHHH", 103000],
  ["1550A07 (designed binder, captured by anti-His mAb) MGVSDVPRDLEVVAATPTSLLISWGHYPMHVRYYRITYGETGGNSPVQEFTVPVPRYTATISGLKPGVDYTITVYAVTYYAQENYKEIPISINYRTEIDKPSQHHHHHH", 117000]
]}
